study_system: Chinese variant CD1a protein (human) (UniProt P06126)
Sequence (P06126 18-295, change not shown): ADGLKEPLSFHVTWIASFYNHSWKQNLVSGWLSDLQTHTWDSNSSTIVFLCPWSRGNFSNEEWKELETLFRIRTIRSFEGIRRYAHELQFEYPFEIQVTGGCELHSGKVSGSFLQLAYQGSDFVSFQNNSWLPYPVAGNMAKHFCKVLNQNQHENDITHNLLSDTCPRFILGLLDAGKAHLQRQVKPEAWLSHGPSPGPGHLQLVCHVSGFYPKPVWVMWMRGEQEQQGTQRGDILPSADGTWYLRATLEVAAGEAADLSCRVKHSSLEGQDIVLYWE
test_method_notes: ELISA, 1 µg/ml antibody

binder: 77A (VR11851) (antibody, V domains shown, also called OX77a; antibody 77a) VH: QSVEESGGRLVTPGTPLTLTCTVSGFSLSSYAMSWVRQAPGKGLEWIGIISSSGTTYYASWAKGRFTISKTSTTVDLKITSPTTEDTATYFCARVDYYSSGWGGLWGPGTLVTVSS VL: AVEMTQTPASMSAAVGGTVTIKCQASEDIYSNLAWYQQKPGQPPKLLIYGASTLASGVPSRFKGSGSGTEYTLTISGVQCDDAATYYCQCTYDTSSYGNTFGGGTEMVVE
quantity_unit: OD
Optical Density (OD): 0.78
//
binder: 111 (VR12113) (antibody, V domains shown, also called OX111) VH: QSVEESGGRLVTPGTPLTLTCTASGFSLSTYAMSWVRQAPGKGLEWIGIISSSGSTYYASWAKGRFTISKTSTTVDLKITSPTTEDTATYFCARETWYWLDLWGQGTLVTVSS VL: AVEMTQTPASVSAAVGGTVTINCQASEDIYSNLAWYQQKPGQPPKLLIYGASTLASGVPSRFKGSGSGTEYTLTISGVQCDDAATYYCQCAYDSSSYGTPFGGGTEVVVK
quantity_unit: OD
Optical Density (OD): 1.44
//
binder: 116 (VR12117) (antibody, V domains shown, also called OX116) VH: QSVEESGGRLVTPGTPLTLTCTVSGFSLSNYAMSWVRQAPGKGLEWIGIIYTTGFTYYASWVKGRFTISKTSTTVDLKITSPTTEDTATYFCARGLATYVSPPTRLDLWGQGTLVTVSS VL: AQVLTQTPSPVSAAVGGTVTINCQASQSIYNSKNLAWYQQKPGQPPKLLIYSASTLASGVPSRFKGSGSGTQFTLTISDLECDDAATYYCQGEFSCSSVDCATFGGGTEVVVK
quantity_unit: OD
Optical Density (OD): 1.51
//
binder: 110 (VR12112) (antibody, V domains shown, also called OX110; antibody 110) VH: QSVEESGGRLVTPGTPLTLTCTVSGFSLSSYAMIWVRQAPGKGLEWIGIINSSDNTHYATWAKGRFTISKTSTTVDLKITSPTTEDTATYFCARDPYDYGYGWYFDLWGPGTLVTVSS VL: AQVLTQTPSPVSAAVGGTVTINCQASQSVFNNKNLAWYQQKPGQPPKLLIYKASTLASGVSSRFKGSGSGTQFALTISGVQCDDAATYYCQGEFSCSSTDCVTFGGGTEVVVK
quantity_unit: OD
Optical Density (OD): 1.79
